target: Glutamate NMDA receptor; GRIN1/GRIN2A (Homo sapiens) (UniProt Q05586+Q12879); test: Blockade of human recombinant NR1/NR2A expressed in xenopus oocytes assessed as inhibition of L-glutamate/glycine-induced whole-cell current at 10 uM at holding potential of -60 mV by electrophysiological assay relative to control; assay type: cell-based; settings: Oocyte
experimental_readout: inhibition (%)
All answers are understood in %, so give the number only.

Some compounds with known inhibition results, for comparison:
> print(dat)
                  compound.structure.string  experimental.readout  assay.value
1  NC(=O)[C@H](Cc1c(Sc2ccccc2[N+](=O)[O-])[nH]c2ccccc12)N1C(=O)N[C@@H](CCCN=C(N)N)C1=O            inhibition         20.2
2  NCCCC[C@H](N)C(=O)N[C@@H](Cc1c(Sc2ncccc2[N+](=O)[O-])[nH]c2ccccc12)C(N)=O            inhibition         23.6
3  CN(C)C(=NCCCC[C@@H]1NC(=O)N([C@@H](Cc2c(Sc3ncccc3[N+](=O)[O-])[nH]c3ccccc23)C(N)=O)C1=O)N(C)C            inhibition         10.8
4  CC(=O)N[C@@H](CCCCN)C(=O)N[C@@H](Cc1c(Sc2ncccc2[N+](=O)[O-])[nH]c2ccccc12)C(N)=O            inhibition         13.6
5  NC(=O)[C@H](Cc1c(Sc2ccccc2[N+](=O)[O-])[nH]c2ccccc12)NC(=O)[C@@H](N)CCCCN=C(N1CCCC1)N1CCCC1            inhibition          8.3
6  NC(=O)[C@H](Cc1c(Sc2ccccc2[N+](=O)[O-])[nH]c2ccccc12)NC(=O)[C@@H](N)CCN=C(N1CCCC1)N1CCCC1            inhibition         13.9

Then there is this compound:
Input line: What measured inhibition is associated with `CC(=O)N[C@@H](CCN=C(N1CCCC1)N1CCCC1)C(=O)N[C@@H](Cc1c(Sc2ccccc2[N+](=O)[O-])[nH]c2ccccc12)C(N)=O` on Glutamate NMDA receptor; GRIN1/GRIN2A (Homo sapiens) (UniProt Q05586+Q12879)?
Output line: 9.6

Values were extracted from ChEMBL document CHEMBL1777688.
